// IC50 lookup, one value per entry
Target: Ba/F3-KIF5B-RET-V804L (Homo sapiens, UniProt P07949, V804L)
Construct: KIF5B (fusion partner, N-terminal part of kinesin-1 heavy chain, P33176); host or cells: Ba/F3 (murine pro-B cells); the other entry of the earlier key: KIF5B (P33176, Kinesin-1 heavy chain)
Sequence (P07949 713-1063 V804L limits assumed): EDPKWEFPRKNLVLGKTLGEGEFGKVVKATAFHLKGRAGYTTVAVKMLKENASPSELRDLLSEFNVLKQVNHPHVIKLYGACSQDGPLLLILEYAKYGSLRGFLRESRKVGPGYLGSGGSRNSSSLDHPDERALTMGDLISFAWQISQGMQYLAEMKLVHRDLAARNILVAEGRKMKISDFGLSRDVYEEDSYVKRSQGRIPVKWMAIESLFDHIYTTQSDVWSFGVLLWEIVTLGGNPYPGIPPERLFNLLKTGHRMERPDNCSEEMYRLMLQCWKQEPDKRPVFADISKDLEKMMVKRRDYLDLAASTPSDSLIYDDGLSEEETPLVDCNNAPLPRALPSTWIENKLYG
Experiment: Cell anti-proliferation (CellTiter-Glo), Ba/F3-KIF5B-RET-V804L cells
Type: cell-based
Details: cell viability, 72 h incubation
METRIC_NAME: IC50

COMPOUND	TEST_VALUE
CO[C@]1(C(=O)N[C@@H](C)c2cnc(-n3cc(F)cn3)cn2)CC[C@H](c2nc(Nc3cc(C)[nH]n3)c3cnn(CC(F)F)c3n2)CC1	< 10 nM
CO[C@]1(C(=O)N[C@@H](C)c2ccc(-n3cc(F)cn3)nc2)CC[C@H](c2nc(Nc3cc(C)[nH]n3)c3cnn(CC(F)F)c3n2)CC1	< 10 nM
CO[C@]1(C(=O)N[C@@H](C)c2ccc(-n3cc(F)cn3)nc2)CC[C@H](c2nc(Nc3cc(C)[nH]n3)c3cnn(COCC[Si](C)(C)C)c3n2)CC1	10 to 50 nM
CO[C@]1(C(=O)N[C@@H](C)c2ccc(-n3cc(F)cn3)nc2)CC[C@H](c2nc(Nc3cc(C)[nH]n3)c3ccn(C)c3n2)CC1 [Control Example 1, reference compound]	< 10 nM
CO[C@]1(C(=O)N[C@@H](C)c2cnc(-n3cc(F)cn3)cn2)CC[C@H](c2nc(Nc3cc(C)[nH]n3)c3cnn(C4CC(F)(F)C4)c3n2)CC1	10 to 50 nM

Reference source for all entries: patent US12545681B2
